# Test system: human erythrocytes
# Type: cell-based
# experimental-setup: pH 7.4
Numbered stars: 1 amine (or outer) side, 2 acyl side, 3 side chain; on linkers, the order of the positions; unused ones are H or OH. Square brackets hold non-standard residues; d marks the D form. Peptide text beside a SMILES is read from it. * marks the point of attachment. 6FAM = O=C1OC2(c3ccc(O)cc3Oc3cc(O)ccc32)c2cc(C(=O)*)ccc21; X1 = COc1ccc2c(CC(N[*:1])C(=O)[*:2])cc(=O)oc2c1; NBD = O=[N+]([O-])c1ccc(*)c2nonc12; Dap = NC[C@H](N)C(=O)O
attribute-measured: Hemolysis at 100 µM
Answer as a quantity: numeral, then unit.

Here is how some molecules turned out for Hemolysis at 100 µM.
>>> value_measured("N=C(N)NCCC[C@@H]1NC(=O)[C@H](CCCCNC(=O)c2ccc3c(c2)C2(OC3=O)c3ccc(O)cc3Oc3cc(O)ccc32)NC(=O)[C@H](Cc2c[nH]c3ccccc23)NC(=O)[C@H](Cc2c[nH]c3ccccc23)NC(=O)[C@H](Cc2c[nH]c3ccccc23)NC(=O)[C@H](CCCNC(=N)N)NC1=O [cW3[Fluos]] (cyclo(RRWWWK(6FAM)))")
"2%"
>>> value_measured("COc1ccc2c(CC3NC(=O)[C@H](Cc4c[nH]c5ccccc45)NC(=O)[C@H](CCCCN)NC(=O)[C@H](CCCNC(=N)N)NC(=O)[C@H](CCCCN)NC(=O)[C@H](Cc4c[nH]c5ccccc45)NC3=O)cc(=O)oc2c1 (stereo partly shown) [cR2[Cu]] (cyclo(KRKW[X1]W))")
"4%"
>>> value_measured("N=C(N)NCCC[C@@H]1NC(=O)[C@H](CCCCN)NC(=O)[C@H](Cc2c[nH]c3ccccc23)NC(=O)[C@H](Cc2ccccc2)NC(=O)[C@H](Cc2c[nH]c3ccccc23)NC(=O)[C@H](CCCCN)NC1=O [cKRK] (cyclo(KRKWFW))")
"2%"

Pending molecule:
Item under review: N=C(N)NCCC[C@@H]1NC(=O)[C@H](CCCNC(=N)N)NC(=O)[C@H](Cc2c[nH]c3ccccc23)NC(=O)[C@H](CNc2ccc([N+](=O)[O-])c3nonc23)NC(=O)[C@H](Cc2c[nH]c3ccccc23)NC(=O)[C@H](CCCNC(=N)N)NC1=O [cW[NBD]W] (cyclo(RRRW[Dap](NBD)W)) . Reported Hemolysis at 100 µM? 76%

----------
The following compounds are shown together with reported Retention Time tR values.
# protocol-notes: Hydrophobicity: retention time tR by reversed phase HPLC
# Type: physicochemical
# experimental-setup: chromatographic, RP-HPLC ProntoSil 300-5-C18-H (250 × 4.6 mm, 5 µm); peptide 1 mg/mL in phase A (0.1% TFA in water); B 0.1% TFA in 80% acetonitrile; linear gradient 5%–95% B over 40 min at 22 °C; used as a measure of hydrophobicity
Numbered stars: 1 amine (or outer) side, 2 acyl side, 3 side chain; on linkers, the order of the positions; unused ones are H or OH. Square brackets hold non-standard residues; d marks the D form. Peptide text beside a SMILES is read from it. * marks the point of attachment. 6FAM = O=C1OC2(c3ccc(O)cc3Oc3cc(O)ccc32)c2cc(C(=O)*)ccc21; X1 = COc1ccc2c(CC(N[*:1])C(=O)[*:2])cc(=O)oc2c1; NBD = O=[N+]([O-])c1ccc(*)c2nonc12; X2 = O=c1cc(C*)c2cc(Br)c(O)cc2o1; Dap = NC[C@H](N)C(=O)O
Your answer should be a plain number; it is taken to be in min.

>>> value_measured("COc1ccc2c(CC3NC(=O)[C@H](Cc4c[nH]c5ccccc45)NC(=O)[C@H](CCCCN)NC(=O)[C@H](CCCNC(=N)N)NC(=O)[C@H](CCCCN)NC(=O)[C@H](Cc4c[nH]c5ccccc45)NC3=O)cc(=O)oc2c1 (some centres unmarked) [cR2[Cu]] (cyclo(KRKW[X1]W))")
17.20
>>> value_measured("N=C(N)NCCC[C@@H]1NC(=O)[C@H](CCCCN)NC(=O)[C@H](Cc2c[nH]c3ccccc23)NC(=O)[C@H](CNc2ccc([N+](=O)[O-])c3nonc23)NC(=O)[C@H](Cc2c[nH]c3ccccc23)NC(=O)[C@H](CCCCN)NC1=O [cR2[NBD]] (cyclo(KRKW[Dap](NBD)W))")
17.47
>>> value_measured("N=C(N)NCCC[C@@H]1NC(=O)[C@H](CCCNC(=N)N)NC(=O)[C@H](Cc2c[nH]c3ccccc23)NC(=O)[C@H](CSCc2cc(=O)oc3cc(O)c(Br)cc23)NC(=O)[C@H](Cc2c[nH]c3ccccc23)NC(=O)[C@H](CCCNC(=N)N)NC1=O [cW[S-Cu]W] (cyclo(RRRWC(X2)W))")
18.91
>>> value_measured("N=C(N)NCCC[C@@H]1NC(=O)[C@H](CCCCNC(=O)c2ccc3c(c2)C2(OC3=O)c3ccc(O)cc3Oc3cc(O)ccc32)NC(=O)[C@H](Cc2c[nH]c3ccccc23)NC(=O)[C@H](Cc2c[nH]c3ccccc23)NC(=O)[C@H](Cc2c[nH]c3ccccc23)NC(=O)[C@H](CCCNC(=N)N)NC1=O [cW3[Fluos]] (cyclo(RRWWWK(6FAM)))")
22.08
>>> value_measured("N=C(N)NCCC[C@@H]1NC(=O)[C@H](Cc2c[nH]c3ccccc23)NC(=O)[C@H](Cc2ccccc2)NC(=O)[C@H](Cc2c[nH]c3ccccc23)NC(=O)[C@H](CCCCN)NC(=O)[C@H](CCCCN)NC1=O [cRKK] (cyclo(RKKWFW))")
18.38
>>> value_measured("N=C(N)NCCC[C@@H]1NC(=O)[C@H](CCCNC(=N)N)NC(=O)[C@H](Cc2c[nH]c3ccccc23)NC(=O)[C@H](Cc2ccccc2)NC(=O)[C@H](Cc2c[nH]c3ccccc23)NC(=O)[C@H](CCCNC(=N)N)NC1=O [cWFW] (cyclo(FWRRRW); ring closure inferred)")
17.67
>>> value_measured("NCCCC[C@@H]1NC(=O)[C@H](CCCCN)NC(=O)[C@H](Cc2c[nH]c3ccccc23)NC(=O)[C@H](Cc2ccccc2)NC(=O)[C@H](Cc2c[nH]c3ccccc23)NC(=O)[C@H](CCCCN)NC1=O [cKKK] (cyclo(KKKWFW))")
17.70
>>> value_measured("N=C(N)NCCC[C@@H]1NC(=O)[C@H](CCCCN)NC(=O)[C@H](CCCCN)NC(=O)[C@H](Cc2c[nH]c3ccccc23)NC(=O)[C@H](Cc2ccccc2)NC(=O)[C@H](Cc2c[nH]c3ccccc23)NC1=O [cKKR] (cyclo(KKRWFW))")
17.86
>>> value_measured("N=C(N)NCCC[C@@H]1NC(=O)[C@H](CCCCN)NC(=O)[C@H](CCCNC(=N)N)NC(=O)[C@H](Cc2c[nH]c3ccccc23)NC(=O)[C@H](Cc2ccccc2)NC(=O)[C@H](Cc2c[nH]c3ccccc23)NC1=O [cRKR] (cyclo(RKRWFW))")
18.60
>>> value_measured("COc1ccc2c(CC3NC(=O)[C@H](Cc4c[nH]c5ccccc45)NC(=O)[C@H](CCCNC(=N)N)NC(=O)[C@H](CCCNC(=N)N)NC(=O)[C@H](CCCNC(=N)N)NC(=O)[C@H](Cc4c[nH]c5ccccc45)NC3=O)cc(=O)oc2c1 (some centres unmarked) [cW[Cu]W] (cyclo(RRRW[X1]W))")
18.40

Item under review: N=C(N)NCCC[C@@H]1NC(=O)[C@H](CCCCN)NC(=O)[C@H](Cc2c[nH]c3ccccc23)NC(=O)[C@H](Cc2ccccc2)NC(=O)[C@H](Cc2c[nH]c3ccccc23)NC(=O)[C@H](CCCCN)NC1=O [cKRK] (cyclo(KRKWFW)) . Reported Retention Time tR? 17.27

Item under review: N=C(N)NCCC[C@@H]1NC(=O)[C@H](CCCNC(=N)N)NC(=O)[C@H](Cc2c[nH]c3ccccc23)NC(=O)[C@H](CNc2ccc([N+](=O)[O-])c3nonc23)NC(=O)[C@H](Cc2c[nH]c3ccccc23)NC(=O)[C@H](CCCNC(=N)N)NC1=O [cW[NBD]W] (cyclo(RRRW[Dap](NBD)W)) . Reported Retention Time tR? 17.90

Item under review: N=C(N)NCCC[C@@H]1NC(=O)[C@H](CCCNC(=N)N)NC(=O)[C@H](CCCCNC(=O)c2ccc3c(c2)C2(OC3=O)c3ccc(O)cc3Oc3cc(O)ccc32)NC(=O)[C@H](Cc2c[nH]c3ccccc23)NC(=O)[C@H](Cc2c[nH]c3ccccc23)NC(=O)[C@H](CCCNC(=N)N)NC1=O [cW2[Fluos]] (cyclo(RRRWWK(6FAM))) . Reported Retention Time tR? 19.28

Item under review: N=C(N)NCCC[C@@H]1NC(=O)[C@H](CCCCN)NC(=O)[C@H](Cc2c[nH]c3ccccc23)NC(=O)[C@H](CSCc2cc(=O)oc3cc(O)c(Br)cc23)NC(=O)[C@H](Cc2c[nH]c3ccccc23)NC(=O)[C@H](CCCCN)NC1=O [cR2[S-Cu]] (cyclo(KRKWC(X2)W)) . Reported Retention Time tR? 17.49

Recorded values, source paper PMC3818835.
